Assay System: hSK2 (Homo sapiens)
Test Summary: Assay for compound activity towards hSK channels (86Rb+ efflux)
Assay Conditions: 86Rb+ efflux stimulated with calcium ionophore; drug 0.01 to 30 μM in EBSS; read-out: hSK2 Inhibitory Activity
// values below are reported IC50
Result Type: IC50

                          structure_notation  result_type    meas_value
 0            c1ccc(-c2cncc(Nc3ncncn3)n2)nc1         IC50    3 to 30 µM
 1          c1ccc(-c2cncc(Nc3nnn[nH]3)n2)nc1         IC50    3 to 30 µM
 2        Cc1ccc(-c2cncc(Nc3ccc(F)cn3)n2)nc1         IC50    3 to 30 µM
 3         Cc1cc(Nc2cncc(-c3ccccn3)n2)[nH]n1         IC50  0.05 to 1 µM
 4     Cc1cc(Nc2cncc(-c3ccccn3)n2)c2ccccc2n1         IC50    3 to 30 µM
 5     CC(C)(C)c1nnc(Nc2cncc(-c3ccccn3)n2)s1         IC50    3 to 30 µM
 6  Cc1cnn(-c2cncc(Nc3ccc(N4CCCC4=O)cn3)n2)c1         IC50  0.05 to 1 µM
 7       c1ccc(Nc2cncc(-c3cc4ccccc4s3)n2)nc1         IC50    3 to 30 µM
 8  c1ccc(-c2cncc(Nc3ccc(N4CCOCC4)cn3)n2)nc1         IC50     < 0.05 µM
 9    O=C1CCCN1c1ccc(Nc2cncc(-c3nccs3)n2)nc1         IC50  0.05 to 1 µM
10             c1ccc(-c2cncc(Nc3nncs3)n2)nc1         IC50    3 to 30 µM
11  CCN(CC)C(=O)c1ccc(Nc2cncc(-c3ccccn3)n2)nc1         IC50    3 to 30 µM
12           Nc1ccc(Nc2cncc(-c3ccccn3)n2)nc1         IC50  0.05 to 1 µM
13  O=C(c1nccnc1Nc1cncc(-c2ccccn2)n1)N1CCCC1         IC50    3 to 30 µM
14   O=C1CCCN1c1ccc(Nc2cncc(-c3ccccn3)n2)nc1         IC50     < 0.05 µM
15   c1ccc(-c2cncc(Nc3ccc(N4CCCC4)cn3)n2)nc1         IC50     < 0.05 µM
16           N#Cc1cncnc1Nc1cncc(-c2ccccn2)n1         IC50    3 to 30 µM
17            c1ccc(-c2cncc(Nc3ccncn3)n2)nc1         IC50    3 to 30 µM
18  NC(=O)c1cnn(-c2ccccc2)c1Nc1cncc(-c2ccccn2)n1         IC50    3 to 30 µM
19  Fc1ccc(Nc2cncc(-c3cc(N4CCCC4)ccn3)n2)nc1         IC50    3 to 30 µM
20  Cc1ccnc(Nc2cncc(-c3ccccn3)n2)c1[N+](=O)[O-]         IC50    3 to 30 µM

----------
Assay System: hSK2 (Homo sapiens, UniProt Q9H2S1)
Test Summary: Assay for compound activity towards hSK channels (86Rb+ efflux)
Assay Conditions: 86Rb+ efflux stimulated with calcium ionophore; drug 0.01 to 30 μM in EBSS; read-out: hSK2 Inhibitory Activity
pIC50: −log10 of the molar value.
Listing of entries alongside the reported pIC50.
Result Type: pIC50

In [3]: df
Out[3]:
                     structure_notation    meas_value
0       Cc1noc(Nc2cncc(-c3ccccn3)n2)c1C  4.52 to 5.52
1     Cc1cnn(-c2cncc(Nc3ccc(I)cn3)n2)c1  4.52 to 5.52
2  NC(=O)c1ccc(Nc2cncc(-c3ccccn3)n2)nc1  4.52 to 5.52
3    Cc1ccnc(-c2cncc(Nc3ccc(F)cn3)n2)c1  6.00 to 7.30
